molecular target: DLG1_1, Q12959; assay: holdup assay; set-up: key: below the threshold = too weak to quantify, mostly under pKd 3.1 to 4; conditions: plain residues with an end cap or a label only (N-terminal biotin on a linker: ado-ado)

| binder | pKd |
| --- | --- |
| VISSDDLTEL [CAPN6, Q9Y6Q1] | below the threshold |
| PSDSVGKDVF [EGLN1, Q9GZT9] | below the threshold |
| SQPLLVHDDV [KIT, P10721] | below the threshold |
| NISARRFTLC [FAM167B, Q9BTA0] | 4.31 |
| GDSSRKEYFI [GYPC, P04921] | 3.49 |
| GTMFLRETSL [GUCY1A2, P33402] | 4.23 |
| DLLGGGSDSI [TNRC6B, Q9UPQ9] | below the threshold |
| VYEVPVETKF [SLC26A3, P40879] | below the threshold |
| QKASRNESTF [POLR1D, P0DPB6] | below the threshold |
| THHRKIHTRV [ZNF599, Q96NL3] | 5.07 |
| TKEIPNCTSV [SORCS3, Q9UPU3] | 4.22 |
| QQGLLPHSSC [TYRO3, Q06418] | below the threshold |
| MQILSKPEFI [NPSR1, Q6W5P4] | below the threshold |
| PSVYSRSQYV [CLDN8, P56748] | below the threshold |
| TNSKQGETTV [FZD1, Q9UP38] | 4.61 |
| SKQFDKNAYV [CLDN10, P78369] | below the threshold |
| IKLETKKTKL [SLC15A2, Q16348] | below the threshold |
| LVEEEEPMNL [HDAC7, Q8WUI4] | below the threshold |
| HDDYFYHDEL [RCN2, Q14257] | below the threshold |
| THREVKFTSL [CD46, P15529] | below the threshold |
| NSTHNLKDYV [CLDN20, P56880] | below the threshold |
| QLGSPTADLA [SIPA1, Q96FS4] | below the threshold |
| ADEMICITTL [CACNA1D, Q01668] | 3.91 |
| PALKNGQYWV [CSPG4, Q6UVK1] | below the threshold |
| PLATCDETSI [SEMA4F, O95754] | 3.59 |
| MLPANYVEAI [NEB, P20929] | below the threshold |
| HYPASPDSWV [CTNND2, Q9UQB3] | 4.07 |
| NNMAFETTHF [SLC5A12, Q1EHB4] | below the threshold |
| LLQEEWETVM [PTH1R, Q03431] | below the threshold |
| SGDGKTSVWI [GJC1, P36383] | below the threshold |
| KLQNPNQSVV [TYRP1, P17643] | 3.83 |
| NKSEPFLTWL [WWTR1, Q9GZV5] | below the threshold |
| FHSIKQSTAV [CRHR1, P34998] | 4.39 |
